These entries and their values trace back to PubChem BioAssay (NCI).

System: HL-60(TB) leukemia
Test: NCI tumour cell line growth inhibition, 48 h; in the data active means GI50 below about 0.43 µM; inactive means the rest
Assign a class; possible classes are active, inactive

Query string: What did the test return for CCC1(NC(=O)c2cc(F)c(F)c(F)c2F)C(=O)NC(=O)N(C(C)C)C1=O (configuration not stated) ?
Result string: inactive

Query string: What did the test return for COc1cc(C2CC(=O)Nc3c2ccc2ccccc32)cc(Br)c1OC (configuration not stated) ?
Result string: active

Query string: What did the test return for COC(=O)[C@]12CC[C@@H](C)[C@H](C)[C@@H]1C1=CC[C@@H]3[C@@]4(C)C(C=O)=C[C@@](C)(COS(C)(=O)=O)C4[C@H](O)C[C@@]3(C)[C@]1(C)CC2 (some centres not stated) ?
Result string: inactive

Query string: What did the test return for Cc1nc2c(N3CCCC3)nc(N3CCNCC3)nc2nc1NCc1ccccc1 ?
Result string: inactive

Query string: What did the test return for NCCCN1CCN(CCCNc2nc3ccccc3c3[nH]c4ccccc4c23)CC1 ?
Result string: active

Query string: What did the test return for COc1cc(F)c(/C=C/c2cc(/C=C/c3cc(OC)c(OC)cc3F)n(-c3cc(F)cc(F)c3)n2)cc1OC ?
Result string: inactive

Query string: What did the test return for Clc1ccc(CNc2nccc(-c3cnn4ncccc34)n2)cc1 ?
Result string: inactive

---

System: SNB-19 CNS
Assay: NCI tumour cell line growth inhibition, 48 h
MEASURE_NAME: TGI

Query string: Return TGI (reported value) for this molecule: C=C1C(=O)OC2/C=C(\CO)CC/C=C(\CO)CC(OC(=O)C(C)C)C12 (stereo not given)
Result string: 45.9 µM

Query string: Return TGI (reported value) for this molecule: C=Cc1nc(C#N)c(N)o1
Result string: > 100 µM

Query string: Return TGI (reported value) for this molecule: CC(=O)Oc1cc(OC(C)=O)c2c(C)cc(=O)oc2c1
Result string: > 100 µM

Query string: Return TGI (reported value) for this molecule: N#CC[N+]1(Cc2ccccn2)CCCC1
Result string: > 100 µM

Query string: Return TGI (reported value) for this molecule: Cc1c(O)c(OC2OC(CO)C(O)C(O)C2O)cc2c1C=C[C@@H]1[C@@]2(C)C(=O)C[C@]2(C)[C@@H]([C@@](C)(O)C(=O)CCC(C)(C)O)[C@H](O)C[C@@]12C (stereo not given in full)
Result string: 54 µM

Query string: Return TGI (reported value) for this molecule: Cc1cc(N2CCCC2)c([N+](=O)[O-])cc1[N+](=O)[O-]
Result string: > 100 µM

Query string: Return TGI (reported value) for this molecule: CCC(=O)/C(=C\I)c1ccccc1
Result string: 29 µM

Query string: Return TGI (reported value) for this molecule: Cc1cc2oc(C)c(S(=O)(=O)NC(=O)Nc3ccc(Cl)cc3)c(=O)c2c(=O)o1
Result string: > 100 µM

Query string: Return TGI (reported value) for this molecule: Cc1ccc(C2=C(c3ccc(C)cc3)C(c3ccc(C)cc3)=C(c3ccc(C)cc3)C2=O)cc1
Result string: > 100 µM

Query string: Return TGI (reported value) for this molecule: CS(=O)(=O)N(CCC#N)c1ccc(C=O)cc1
Result string: > 100 µM

---

Provide the reported GI50 of each item.
System: DU-145 prostate
Test: NCI tumour cell line growth inhibition, 48 h

Query string: Return GI50 (reported value) for this molecule: C=C1C(OC/C=C/COC2O[C@@H]3O[C@@]4(C)CC[C@H]5[C@H](C)CC[C@@H](C2=C)[C@@]35OO4)O[C@@H]2O[C@@]3(C)CC[C@H]4[C@H](C)CC[C@@H]1[C@@]24OO3 (some centres not stated)
Result string: 15.5 µM

Query string: Return GI50 (reported value) for this molecule: COc1cccc(N=N/C(=N\NC(=O)c2cc(Br)ccc2O)c2ccc(N(CCC#N)CCC#N)cc2OC)c1
Result string: 87.2 µg/mL

Query string: Return GI50 (reported value) for this molecule: NC(=O)c1ccccc1NC(=O)c1ccccc1Cl
Result string: > 100 µM

Query string: Return GI50 (reported value) for this molecule: N#C/C(=C\c1c(-c2ccccc2)[nH]c2ccccc12)C(=O)c1ccccc1
Result string: 5.22 µM

Query string: Return GI50 (reported value) for this molecule: FC(F)(F)c1cccc2c(SCCc3n[nH]c(=S)o3)ccnc12
Result string: 78.4 µM

Query string: Return GI50 (reported value) for this molecule: Nc1ccc(C(OC(=O)c2cc3ccccc3c(Cc3c(O)c(C(=O)OC(c4ccc(N)cc4)(c4ccc(N)cc4)c4ccc(N)cc4)cc4ccccc34)c2O)(c2ccc(N)cc2)c2ccc(N)cc2)cc1
Result string: 2.18 µM

Query string: Return GI50 (reported value) for this molecule: Cc1cc(C)c(S(=O)(=O)N(CCc2cccc(Br)c2)Cc2ccc(-c3cccc(S(C)(=O)=O)c3)cc2)c(C)c1
Result string: > 100 µM
